Recorded values, source PubChem BioAssay.

experiment: A549 cell viability effects, profiling panel, calcein-AM fluorescence, 48 h, basal (AID 1162); conditions: higher = more signal; note: test concentration not given here
Mark class 0 for z-score values under -0.3, and class 1 for everything at or above.

// below: answered compounds
# COMPOUND, LABEL
measured = [
    ("CC(C)C(=C=CC[C@H](O)c1ccc(OCCO)cc1)CCO", "class 1"),
    ("NCCCCCCNC(=O)[C@@H]1C[C@@H]2C(=O)NCC(=O)N2[C@@H]1c1ccc(O)cc1", "class 0"),
    ("CCC[C@@H]1C[C@@]1(CCC)[C@@H](NC(=O)c1ccccc1)c1cccc(Cl)c1", "class 0"),
]

Would you say COCCOC(=O)N1C(=O)[C@@]2(c3cc(C#CCNC(N)=O)ccc31)[C@H](C(=O)N1CCN(c3ncccn3)CC1)[C@H]1C(=O)O[C@H](c3ccccc3)[C@H](c3ccccc3)N1[C@@H]2c1ccc(OCCO)cc1 shows z-score at minimum -0.3?
class 1

Same for COC(=O)[C@@]1(Cc2ccc(OC)cc2)[C@H]2c3cc(C(=O)N(C)C)n(Cc4ccccn4)c3C[C@H]2CN1C(=O)c1ccccc1
class 0

Same for C[C@H]1NC(=O)[C@@]23C(=O)N[C@@H](Cc4ccccc4)C2[C@H](C)[C@@]2(C)O[C@H]2C3/C=C/C/C=C\CNC(=O)[C@@H]2CCCN2C1=O (some centres not stated)
class 1
